Attribution: the supplement of paper PMC6555819

- Test system: LXRb homodimer (NR concentration 270 nM)
- assay: PBM binding z-score (relative to random genomic background probes); higher = stronger binding; sequences stand for … in GC…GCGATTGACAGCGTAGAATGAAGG
Decide by PBM binding z-score: equal to or exceeding -0.08 means 1, less means -1.

Q) Could you tell me if the measured PBM binding z-score of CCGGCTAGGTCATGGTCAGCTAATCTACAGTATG reaches -0.08 or more?
A) 1

Q) Quick one: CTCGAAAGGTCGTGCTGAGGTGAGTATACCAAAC
A) -1

Q) Check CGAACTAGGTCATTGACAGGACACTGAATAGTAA too.
A) 1

Q) Also need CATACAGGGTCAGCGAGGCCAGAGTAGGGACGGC , thanks.
A) 1

Q) Subsequent entry: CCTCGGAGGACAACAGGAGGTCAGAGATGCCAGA
A) -1

Q) Repeat with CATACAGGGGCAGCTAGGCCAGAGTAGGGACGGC
A) -1

Q) Okay, and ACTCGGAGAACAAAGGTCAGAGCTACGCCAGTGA ?
A) 1

Q) Please give the result for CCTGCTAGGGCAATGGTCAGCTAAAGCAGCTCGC too.
A) -1

Q) Another sequence to check: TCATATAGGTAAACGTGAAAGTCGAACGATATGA
A) 1

Q) Can you handle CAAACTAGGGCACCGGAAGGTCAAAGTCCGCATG next?
A) -1

Q) What about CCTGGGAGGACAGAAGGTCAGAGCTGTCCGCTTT ?
A) -1

Q) Subsequent entry: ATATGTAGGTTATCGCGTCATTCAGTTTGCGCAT
A) 1

Q) Also, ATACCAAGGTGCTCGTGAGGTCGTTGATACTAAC please.
A) -1

Q) Also need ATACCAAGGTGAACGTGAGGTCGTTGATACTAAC , thanks.
A) -1

Q) And what about the sequence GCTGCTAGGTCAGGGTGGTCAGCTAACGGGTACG ?
A) -1

Q) And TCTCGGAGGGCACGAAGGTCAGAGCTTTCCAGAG ?
A) -1

Q) Try this sequence next: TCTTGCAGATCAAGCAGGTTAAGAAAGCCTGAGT
A) -1

Q) Try this sequence too: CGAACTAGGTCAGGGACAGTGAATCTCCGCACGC
A) -1

Q) Similarly, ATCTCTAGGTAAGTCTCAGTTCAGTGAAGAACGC ?
A) 1

Q) Same question, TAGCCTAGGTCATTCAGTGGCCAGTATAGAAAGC this time
A) 1

Q) And for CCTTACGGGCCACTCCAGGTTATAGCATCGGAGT ?
A) -1

Q) Okay, and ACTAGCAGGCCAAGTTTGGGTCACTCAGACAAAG ?
A) -1

Q) Then what about the sequence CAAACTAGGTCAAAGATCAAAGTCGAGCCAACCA ?
A) 1

Q) Also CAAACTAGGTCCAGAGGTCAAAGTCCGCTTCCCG ?
A) 1

Q) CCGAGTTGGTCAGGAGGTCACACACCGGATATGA , same question.
A) -1

###

- Tested on: PPARg:RXRa 30nM:10nM, anti-RXR (NR concentration 30 nM, RXRa partner concentration 10 nM)
- assay: PBM binding z-score (relative to random genomic background probes); higher = stronger binding; sequences stand for … in GC…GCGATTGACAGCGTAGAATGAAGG
Record form. Attribute: PBM binding z-score. Fill in for each entry.
Lab note: jot the number down without any unit.

Q) Which PBM binding z-score value belongs to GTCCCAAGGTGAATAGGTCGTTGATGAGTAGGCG ?
A) 0.109

Q) Would you mind doing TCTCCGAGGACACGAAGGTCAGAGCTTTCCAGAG as well?
A) 2.34

Q) Request: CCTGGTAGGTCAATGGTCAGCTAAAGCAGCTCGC
A) 4.37

Q) Now the sequence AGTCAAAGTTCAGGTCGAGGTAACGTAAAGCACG
A) 2.07

Q) What do we get for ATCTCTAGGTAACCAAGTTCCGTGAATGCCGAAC ?
A) -0.073

Q) And for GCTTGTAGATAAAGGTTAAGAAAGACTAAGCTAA ?
A) 0.494
